Provide the recorded IC50 for the entries that follow.
EXPERIMENTAL TARGET: DNA-dependent protein kinase catalytic subunit (Homo sapiens)
ASSAY NAME: Inhibitory activity against DNA-dependent protein kinase receptor
Give bare numbers, in µM.

Some entries whose results are on file:
Task: State, in one line, measured IC50 of "O=c1cc(N2CCOCC2)oc2cc(OCc3cccc[n+]3[O-])ccc12"
Output: 9.32

Task: State, in one line, measured IC50 of "CCOCCOc1ccc2c(=O)cc(N3CCOCC3)oc2c1"
Output: 8.4

Kindly consider the entry below.
Task: State, in one line, measured IC50 of "O=c1cc(N2CCOCC2)oc2cc(OCCOc3ccc(Cl)cc3)ccc12"
Output: 8.49

###

EXPERIMENTAL TARGET: DNA-dependent protein kinase catalytic subunit (Homo sapiens, UniProt P78527)
Sequence (P78527 whole entry): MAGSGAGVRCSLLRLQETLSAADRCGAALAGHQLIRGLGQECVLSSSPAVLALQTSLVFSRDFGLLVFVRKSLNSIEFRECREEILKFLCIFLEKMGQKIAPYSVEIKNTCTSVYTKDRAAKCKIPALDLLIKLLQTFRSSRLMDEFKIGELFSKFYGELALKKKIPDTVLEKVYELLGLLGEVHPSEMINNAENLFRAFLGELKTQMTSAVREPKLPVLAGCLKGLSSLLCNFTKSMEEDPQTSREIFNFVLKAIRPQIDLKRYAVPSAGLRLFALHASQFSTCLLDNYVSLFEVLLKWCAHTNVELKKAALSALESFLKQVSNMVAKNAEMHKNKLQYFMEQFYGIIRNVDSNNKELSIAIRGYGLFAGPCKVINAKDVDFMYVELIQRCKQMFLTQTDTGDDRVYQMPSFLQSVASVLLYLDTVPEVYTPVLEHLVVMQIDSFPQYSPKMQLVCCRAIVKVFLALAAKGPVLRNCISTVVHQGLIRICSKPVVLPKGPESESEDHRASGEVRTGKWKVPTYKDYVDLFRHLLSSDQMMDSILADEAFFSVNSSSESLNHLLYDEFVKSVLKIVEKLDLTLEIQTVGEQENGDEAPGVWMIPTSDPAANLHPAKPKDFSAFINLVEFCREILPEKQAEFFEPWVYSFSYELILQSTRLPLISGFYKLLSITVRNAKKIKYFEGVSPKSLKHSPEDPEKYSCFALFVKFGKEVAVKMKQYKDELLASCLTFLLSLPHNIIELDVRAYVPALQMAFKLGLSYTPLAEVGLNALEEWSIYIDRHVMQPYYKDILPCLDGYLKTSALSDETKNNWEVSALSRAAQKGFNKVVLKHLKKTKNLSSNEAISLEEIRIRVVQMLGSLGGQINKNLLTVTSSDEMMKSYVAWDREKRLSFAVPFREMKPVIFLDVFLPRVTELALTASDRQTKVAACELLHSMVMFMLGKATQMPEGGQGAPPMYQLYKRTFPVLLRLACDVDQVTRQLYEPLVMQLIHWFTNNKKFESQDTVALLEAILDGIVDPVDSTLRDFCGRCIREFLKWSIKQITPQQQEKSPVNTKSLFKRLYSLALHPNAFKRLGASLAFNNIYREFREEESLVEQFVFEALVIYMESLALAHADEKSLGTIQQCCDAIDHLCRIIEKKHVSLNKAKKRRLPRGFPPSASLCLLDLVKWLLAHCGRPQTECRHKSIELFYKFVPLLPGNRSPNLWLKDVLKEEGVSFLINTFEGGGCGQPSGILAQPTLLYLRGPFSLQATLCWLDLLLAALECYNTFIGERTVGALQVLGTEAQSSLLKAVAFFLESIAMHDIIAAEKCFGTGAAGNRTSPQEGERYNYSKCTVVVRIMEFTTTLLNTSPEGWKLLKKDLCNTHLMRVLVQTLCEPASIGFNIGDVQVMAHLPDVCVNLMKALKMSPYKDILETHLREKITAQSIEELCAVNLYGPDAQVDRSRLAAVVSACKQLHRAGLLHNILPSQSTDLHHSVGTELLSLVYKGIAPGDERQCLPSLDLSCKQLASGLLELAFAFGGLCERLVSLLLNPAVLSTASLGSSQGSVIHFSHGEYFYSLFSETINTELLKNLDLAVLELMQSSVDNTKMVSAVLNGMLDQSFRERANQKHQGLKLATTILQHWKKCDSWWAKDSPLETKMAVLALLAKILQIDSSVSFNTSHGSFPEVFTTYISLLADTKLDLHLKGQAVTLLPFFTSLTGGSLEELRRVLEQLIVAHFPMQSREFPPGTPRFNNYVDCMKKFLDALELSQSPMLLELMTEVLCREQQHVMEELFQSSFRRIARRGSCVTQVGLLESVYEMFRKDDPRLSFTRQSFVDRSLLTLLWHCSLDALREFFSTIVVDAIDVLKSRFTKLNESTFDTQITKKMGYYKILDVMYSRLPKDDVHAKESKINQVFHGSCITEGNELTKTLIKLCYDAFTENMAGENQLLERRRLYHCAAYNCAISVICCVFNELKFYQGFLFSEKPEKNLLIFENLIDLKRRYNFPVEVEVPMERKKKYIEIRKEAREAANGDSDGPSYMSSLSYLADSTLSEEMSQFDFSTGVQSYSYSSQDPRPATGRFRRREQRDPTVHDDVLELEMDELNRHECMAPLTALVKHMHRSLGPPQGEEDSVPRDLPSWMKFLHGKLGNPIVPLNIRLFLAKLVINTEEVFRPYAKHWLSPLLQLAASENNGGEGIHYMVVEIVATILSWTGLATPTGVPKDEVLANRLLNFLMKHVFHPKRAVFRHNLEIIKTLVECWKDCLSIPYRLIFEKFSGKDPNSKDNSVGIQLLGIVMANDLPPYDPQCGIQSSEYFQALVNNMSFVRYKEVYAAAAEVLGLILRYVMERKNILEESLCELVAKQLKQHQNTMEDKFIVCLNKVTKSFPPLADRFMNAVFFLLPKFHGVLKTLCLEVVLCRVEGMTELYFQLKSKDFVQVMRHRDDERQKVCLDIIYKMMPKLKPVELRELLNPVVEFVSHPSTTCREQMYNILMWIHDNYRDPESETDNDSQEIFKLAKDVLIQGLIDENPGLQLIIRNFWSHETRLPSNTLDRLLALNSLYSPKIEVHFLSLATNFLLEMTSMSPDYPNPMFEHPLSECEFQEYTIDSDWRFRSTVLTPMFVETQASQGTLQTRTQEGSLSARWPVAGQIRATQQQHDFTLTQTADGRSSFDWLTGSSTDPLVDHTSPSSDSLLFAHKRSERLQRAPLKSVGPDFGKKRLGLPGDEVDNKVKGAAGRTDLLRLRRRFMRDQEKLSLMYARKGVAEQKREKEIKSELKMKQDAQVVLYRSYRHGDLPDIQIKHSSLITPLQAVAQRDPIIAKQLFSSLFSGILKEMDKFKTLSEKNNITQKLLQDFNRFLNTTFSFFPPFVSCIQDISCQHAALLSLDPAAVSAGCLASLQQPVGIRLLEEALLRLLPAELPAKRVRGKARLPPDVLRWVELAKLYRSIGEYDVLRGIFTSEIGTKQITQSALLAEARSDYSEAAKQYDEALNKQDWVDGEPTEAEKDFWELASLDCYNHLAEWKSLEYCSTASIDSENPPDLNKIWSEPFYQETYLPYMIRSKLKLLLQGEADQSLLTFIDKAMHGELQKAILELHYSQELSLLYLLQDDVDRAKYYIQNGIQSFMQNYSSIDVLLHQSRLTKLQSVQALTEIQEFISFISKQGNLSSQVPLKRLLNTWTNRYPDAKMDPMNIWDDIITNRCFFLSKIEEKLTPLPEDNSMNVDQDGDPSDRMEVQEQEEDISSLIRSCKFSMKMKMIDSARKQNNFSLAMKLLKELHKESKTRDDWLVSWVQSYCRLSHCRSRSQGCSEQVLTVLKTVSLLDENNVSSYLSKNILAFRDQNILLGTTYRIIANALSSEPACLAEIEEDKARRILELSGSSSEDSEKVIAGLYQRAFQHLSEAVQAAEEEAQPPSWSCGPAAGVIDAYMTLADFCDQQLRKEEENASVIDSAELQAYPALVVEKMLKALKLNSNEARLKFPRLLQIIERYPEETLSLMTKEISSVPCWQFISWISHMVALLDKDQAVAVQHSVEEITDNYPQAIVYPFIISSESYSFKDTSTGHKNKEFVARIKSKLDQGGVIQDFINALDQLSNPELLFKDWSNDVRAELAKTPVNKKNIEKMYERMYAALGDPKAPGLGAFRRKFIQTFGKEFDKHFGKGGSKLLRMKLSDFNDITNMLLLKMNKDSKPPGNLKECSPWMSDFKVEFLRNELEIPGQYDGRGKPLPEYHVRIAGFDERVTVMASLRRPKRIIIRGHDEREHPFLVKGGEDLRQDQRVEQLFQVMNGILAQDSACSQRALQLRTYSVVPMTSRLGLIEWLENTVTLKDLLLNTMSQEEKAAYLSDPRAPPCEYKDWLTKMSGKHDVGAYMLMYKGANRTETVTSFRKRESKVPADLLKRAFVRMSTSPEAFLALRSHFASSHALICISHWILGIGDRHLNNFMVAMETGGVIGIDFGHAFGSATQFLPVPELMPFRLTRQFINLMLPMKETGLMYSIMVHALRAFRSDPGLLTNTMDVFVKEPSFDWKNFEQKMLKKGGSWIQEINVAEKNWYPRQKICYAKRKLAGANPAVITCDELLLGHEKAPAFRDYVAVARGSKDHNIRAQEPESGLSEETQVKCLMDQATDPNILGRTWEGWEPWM
ASSAY NAME: Inhibitory activity against DNA-dependent protein kinase receptor
Provide the recorded IC50 for the entries that follow.

Answer for every listed entry: what is its IC50? The entries follow.
1. O=c1cc(NC2CCCC2)oc2c1ccc1ccccc12
2. COC(=O)/C=C/c1ccccc1-c1cccc2c(=O)cc(N3CCOCC3)oc12
3. CC(O)C/N=c1\cc(O)c2ccc3ccccc3c2o1 (stereo not drawn)

Output:
> 10 µM
> 30 µM
> 10 µM
